- studyTarget: human complement protein C3 (human) (UniProt P01024)
- Sequence (P01024 23-667, chain 1 of 2): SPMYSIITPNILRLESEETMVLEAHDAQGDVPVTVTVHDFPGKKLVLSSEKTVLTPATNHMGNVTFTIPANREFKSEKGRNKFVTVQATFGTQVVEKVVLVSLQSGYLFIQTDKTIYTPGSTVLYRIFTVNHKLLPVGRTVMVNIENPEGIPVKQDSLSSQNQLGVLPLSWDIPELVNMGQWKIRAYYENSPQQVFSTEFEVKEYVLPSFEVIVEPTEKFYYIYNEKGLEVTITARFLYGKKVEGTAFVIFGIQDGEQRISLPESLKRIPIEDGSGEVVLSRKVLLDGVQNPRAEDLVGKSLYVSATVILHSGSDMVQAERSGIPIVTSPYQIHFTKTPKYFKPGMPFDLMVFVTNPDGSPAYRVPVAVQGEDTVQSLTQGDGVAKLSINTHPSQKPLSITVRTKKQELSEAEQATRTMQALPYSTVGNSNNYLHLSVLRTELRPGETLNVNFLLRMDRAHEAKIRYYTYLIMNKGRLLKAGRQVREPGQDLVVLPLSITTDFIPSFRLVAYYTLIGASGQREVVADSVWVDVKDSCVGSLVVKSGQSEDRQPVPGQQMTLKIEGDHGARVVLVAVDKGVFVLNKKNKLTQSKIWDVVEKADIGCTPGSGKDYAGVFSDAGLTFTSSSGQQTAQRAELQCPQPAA
- Sequence (P01024 672-1663, chain 2 of 2): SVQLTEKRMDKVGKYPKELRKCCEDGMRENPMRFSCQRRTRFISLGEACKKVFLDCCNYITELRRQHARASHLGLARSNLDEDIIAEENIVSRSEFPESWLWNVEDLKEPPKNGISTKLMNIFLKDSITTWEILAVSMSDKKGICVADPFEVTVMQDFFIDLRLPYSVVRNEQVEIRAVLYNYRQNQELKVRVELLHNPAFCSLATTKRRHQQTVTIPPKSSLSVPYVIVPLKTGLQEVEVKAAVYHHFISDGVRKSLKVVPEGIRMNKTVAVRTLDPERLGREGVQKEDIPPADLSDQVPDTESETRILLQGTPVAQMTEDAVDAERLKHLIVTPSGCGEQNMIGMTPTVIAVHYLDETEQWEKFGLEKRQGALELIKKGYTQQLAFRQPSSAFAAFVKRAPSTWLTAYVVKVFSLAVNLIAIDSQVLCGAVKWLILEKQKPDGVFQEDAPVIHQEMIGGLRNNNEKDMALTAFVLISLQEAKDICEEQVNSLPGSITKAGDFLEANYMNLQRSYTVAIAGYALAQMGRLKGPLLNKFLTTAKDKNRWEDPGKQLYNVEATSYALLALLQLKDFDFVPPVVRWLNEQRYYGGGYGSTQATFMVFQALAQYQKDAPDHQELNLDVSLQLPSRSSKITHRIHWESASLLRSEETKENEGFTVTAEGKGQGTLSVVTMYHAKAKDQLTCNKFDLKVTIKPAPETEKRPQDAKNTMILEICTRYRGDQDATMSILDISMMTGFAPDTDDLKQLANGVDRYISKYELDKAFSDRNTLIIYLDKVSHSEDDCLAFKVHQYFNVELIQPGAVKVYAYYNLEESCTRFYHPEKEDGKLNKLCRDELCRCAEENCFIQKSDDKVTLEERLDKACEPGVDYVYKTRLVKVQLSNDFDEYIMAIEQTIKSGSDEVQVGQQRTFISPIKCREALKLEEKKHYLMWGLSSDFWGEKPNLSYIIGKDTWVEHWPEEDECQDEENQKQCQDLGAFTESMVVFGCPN
- assayText: cell-based or functional assay
EC50 (nM), cleavage of purified hC3 in vitro values for the binders below.
parameterMeasured: EC50 (nM), cleavage of purified hC3 in vitro

{"binder": "Q38H/I41S/D60bT/F60eS/Y60gW/D96I/F97N/T98G/F99L/C122S/G151N/Q175L/Q192D (enzyme) VVGGTDADEGEWPWQVSLHALGHGHSCGASLISPNWLVSAAHCYIDTRGSRWSDPTQWTAFLGLHDQSQRSAPGVQERRLKRIISHPFFNINGLDYDIALLELEKPAEYSSMVRPISLPDASHVFPAGKAIWVTGWGHTQYGGTNALILQKGEIRVINQTTCENLLPQLITPRMMCVGFLSGGVDSCDGDSGGPLSSVEADGRIFQAGVVSWGDGCAQRNKPGVYTRLPLFRDWIKENTGV", "measValue": 3.04}
{"binder": "ins97aY/F97G/T98V/C122S/Q175M/Q192S/D217V (enzyme) VVGGTDADEGEWPWQVSLHALGQGHICGASLISPNWLVSAAHCYIDDRGFRYSDPTQWTAFLGLHDQSQRSAPGVQERRLKRIISHPFFNDGYVFDYDIALLELEKPAEYSSMVRPISLPDASHVFPAGKAIWVTGWGHTQYGGTGALILQKGEIRVINQTTCENLLPQMITPRMMCVGFLSGGVDSCSGDSGGPLSSVEADGRIFQAGVVSWGVGCAQRNKPGVYTRLPLFRDWIKENTGV", "measValue": 2.42}
{"binder": "Q38H/I41A/D60bV/F60eR/Y60gW/D96F/F97S/ins97aH/T98G/F99L/C122S/G151N/Q175L/Q192G (enzyme) VVGGTDADEGEWPWQVSLHALGHGHACGASLISPNWLVSAAHCYIDVRGRRWSDPTQWTAFLGLHDQSQRSAPGVQERRLKRIISHPFFNFSHGLDYDIALLELEKPAEYSSMVRPISLPDASHVFPAGKAIWVTGWGHTQYGGTNALILQKGEIRVINQTTCENLLPQLITPRMMCVGFLSGGVDSCGGDSGGPLSSVEADGRIFQAGVVSWGDGCAQRNKPGVYTRLPLFRDWIKENTGV", "measValue": 3.14}

// data source = patent US20240018502A1
